Reported refractive index values for the following molecules.
Assay: refractive index (Na D-line) (dimensionless)
Details: 293.15 K; 101.33 kPa; Liquid
value-kind: refractive index

test_smiles=ClCCCl value_kind="refractive index" value_observed=1.4196
test_smiles=Cc1cccc(C)c1 value_kind="refractive index" value_observed=1.4972
test_smiles=Cc1ccc(C)cc1 value_kind="refractive index" value_observed=1.4858
test_smiles=ClC(Cl)C(Cl)Cl value_kind="refractive index" value_observed=1.494
test_smiles=ClC(Cl)=C(Cl)Cl value_kind="refractive index" value_observed=1.505

###

Settings: 293.15 K; 101.33 kPa; Liquid
I'd appreciate it if you marked entries true (1) when mass density is lower than 900 kg/m3 and false (0) when it is not.

test_smiles=Cc1ccc(C)cc1 label_value="true (1)"
test_smiles=ClCCCl label_value="false (0)"
test_smiles=Cc1cccc(C)c1 label_value="true (1)"
test_smiles=ClC(Cl)=C(Cl)Cl label_value="false (0)"
test_smiles=ClC(Cl)C(Cl)Cl label_value="false (0)"
